Reported Kd values are given for each entry in this list.
studyTarget: T1, cynomolgus monkey glypican-3 (GPC3) (cynomolgus monkey, UniProt A5A6P7 25-554 (Pan troglodytes entry))
T1 construct: Transiently expressed on CHO-S cells; also called cynoGPC3; CynoGPC3-CHO
testDescription: flow cytometry on CHO-S cells transfected with cynomolgus GPC3;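 further: antibodies incubated 24 h at 4 °C with transiently transfected cells, binding read as AF647 geometric mean fluorescence of live cells, GFP-transfected cells as negative control, Hill-slope specific-binding fit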
The figure you give is taken to be in nM; do not add the unit.

- binder: "H18L6_LC_G34D mAb, v40203 (antibody, human IgG1, kappa, V domains shown) VH: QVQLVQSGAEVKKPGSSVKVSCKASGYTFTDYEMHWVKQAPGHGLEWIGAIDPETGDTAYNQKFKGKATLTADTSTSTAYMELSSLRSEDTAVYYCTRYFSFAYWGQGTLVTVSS VL: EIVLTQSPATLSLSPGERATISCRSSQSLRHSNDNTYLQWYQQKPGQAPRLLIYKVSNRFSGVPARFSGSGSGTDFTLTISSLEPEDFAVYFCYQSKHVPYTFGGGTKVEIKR"
  Kd [nM]: 0.18
- binder: "H18L6_LC_G34E mAb, v40204 (antibody, human IgG1, kappa, V domains shown, M3-H18L6 chains with the stated light chain point mutation, IgG1/kappa) VH: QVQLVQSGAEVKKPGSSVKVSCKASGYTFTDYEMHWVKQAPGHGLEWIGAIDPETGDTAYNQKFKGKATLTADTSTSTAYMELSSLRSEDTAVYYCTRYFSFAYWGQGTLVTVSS VL: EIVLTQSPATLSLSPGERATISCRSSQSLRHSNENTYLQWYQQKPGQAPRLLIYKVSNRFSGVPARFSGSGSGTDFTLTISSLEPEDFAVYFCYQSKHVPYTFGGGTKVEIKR"
  Kd [nM]: 0.15

Proceed to the following item.
Need Kd, item H18L6_LC_G34H mAb, v40205 (antibody, human IgG1, kappa, V domains shown, M3-H18L6 chains with the stated light chain point mutation, IgG1/kappa) VH: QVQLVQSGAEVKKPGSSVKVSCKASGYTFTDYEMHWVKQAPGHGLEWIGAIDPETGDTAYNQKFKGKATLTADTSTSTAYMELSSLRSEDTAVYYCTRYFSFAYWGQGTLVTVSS VL: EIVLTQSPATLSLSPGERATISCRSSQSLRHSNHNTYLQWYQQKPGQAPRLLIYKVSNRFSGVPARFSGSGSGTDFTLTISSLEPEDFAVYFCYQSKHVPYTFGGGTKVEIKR
0.14
